# measured_on: Cad1 (UniProt P24813)
# Sequence: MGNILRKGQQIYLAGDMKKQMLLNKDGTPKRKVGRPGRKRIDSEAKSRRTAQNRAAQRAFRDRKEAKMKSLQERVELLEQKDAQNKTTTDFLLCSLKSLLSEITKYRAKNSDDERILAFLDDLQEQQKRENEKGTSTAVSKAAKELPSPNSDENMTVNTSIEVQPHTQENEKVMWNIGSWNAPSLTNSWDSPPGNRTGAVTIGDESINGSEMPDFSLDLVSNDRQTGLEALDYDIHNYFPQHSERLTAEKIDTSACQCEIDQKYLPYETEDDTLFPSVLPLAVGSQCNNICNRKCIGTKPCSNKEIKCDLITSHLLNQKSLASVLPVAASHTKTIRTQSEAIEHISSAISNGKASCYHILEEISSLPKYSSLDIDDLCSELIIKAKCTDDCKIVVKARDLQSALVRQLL
# procedure_text: PBM E-score (8-mer binding enrichment) (E-score (-0.5 to 0.5)); higher = stronger / more preferred TF binding
# run_conditions: protein concentration: 100 nM; construct: GST-full length
Whole data set: some 33,000 sequences, median “E-score (-0.5 to 0.5)” near -0.0014, cut for the highest 2% near 0.25. The sample as a whole holds a higher share of the highest values than the screen did.
Recorded PBM E-score, one value per entry.
# answer = number (no unit)

Solved cases below.
ATATTAAT; 0.368
ATCCAACC; -0.0228
CTATTAAC; 0.141
CGGAGTAA; 0.109

Query: Find the measured PBM E-score of CCCTTGAC and report it.
Response: -0.197

Query: Look up PBM E-score of ATATTAAC and report it.
Response: 0.224
